Biological target: Tryptophan 2,3-dioxygenase (Homo sapiens, UniProt P48775)
Sequence (P48775 whole entry): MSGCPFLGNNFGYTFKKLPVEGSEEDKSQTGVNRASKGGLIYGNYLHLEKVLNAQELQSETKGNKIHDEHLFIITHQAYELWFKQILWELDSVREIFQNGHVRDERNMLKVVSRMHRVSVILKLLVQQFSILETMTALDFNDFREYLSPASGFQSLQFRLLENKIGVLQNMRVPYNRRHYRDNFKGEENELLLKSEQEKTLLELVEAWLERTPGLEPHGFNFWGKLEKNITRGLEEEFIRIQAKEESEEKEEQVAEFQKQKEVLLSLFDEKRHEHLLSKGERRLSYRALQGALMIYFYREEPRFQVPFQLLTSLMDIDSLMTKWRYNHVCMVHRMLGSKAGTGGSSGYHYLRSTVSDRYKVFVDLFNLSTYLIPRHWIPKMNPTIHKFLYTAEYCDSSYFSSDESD
parameter: IC50 (µM)
Answers are plain numbers, in µM.

Please report IC50 with Tryptophan 2,3-dioxygenase (Homo sapiens, UniProt P48775) for item O=C1CC(c2c[nH]c3ccc(F)cc23)C(=O)N1 (stereo unspecified) [PF-06840003] . 424
